Data provenance is patent USRE36831E.

test system: human erythrocytes; conditions: pH 7.4
observation-type: Amount of complex entering erythrocytes (n.mole)

(I) CCn1cc([O-])c(=O)cc1CO.CCn1cc([O-])c(=O)cc1CO.CCn1cc([O-])c(=O)cc1CO.[Fe+3]
(II) CCCCNC(=O)Cn1cccc([O-])c1=O.CCCCNC(=O)Cn1cccc([O-])c1=O.CCCCNC(=O)Cn1cccc([O-])c1=O.[Fe+3]
(III) CC(=O)n1cccc([O-])c1=O.CC(=O)n1cccc([O-])c1=O.CC(=O)n1cccc([O-])c1=O.[Fe+3]
(IV) CC(C)NC(=O)Cn1cccc([O-])c1=O.CC(C)NC(=O)Cn1cccc([O-])c1=O.CC(C)NC(=O)Cn1cccc([O-])c1=O.[Fe+3]
(V) CCOC(=O)Cn1cccc([O-])c1=O.CCOC(=O)Cn1cccc([O-])c1=O.CCOC(=O)Cn1cccc([O-])c1=O.[Fe+3]
Arrange these 5 molecules in increasing order of Amount of complex entering erythrocytes. Lab note: record answer as labels in requested order.
V, I, IV, II, III
(V: 10 n.mole, I: 26 n.mole, IV: 52 n.mole, II: 105 n.mole, III: 240 n.mole)

---

experiment: Partition coefficient between n-octanol and aqueous tris hydrochloride (20 mM, pH 7.4) at 20° C.; details: n-octanol/tris buffer, pH 7.4
observation-type: logD at 100 µM
// no unit, no text: just the number

Form: molecule = Cc1c(O)c(=O)ccn1CCCCO ; logD at 100 µM = -0.854

---

experiment: Partition coefficient between n-octanol and aqueous tris hydrochloride (20 mM, pH 7.4) at 20° C.; settings: free compound, 10^-4 M; n-octanol/tris hydrochloride 20 mM pH 7.4, 20° C.
observation-type: Partition coefficient KOUT, free compound

Observe how each entry below is paired with its result.
> print(dat)
                cpd.smiles  result.number
1  CCCNC(=O)Cn1cccc(O)c1=O           0.35
2   CCNC(=O)Cn1cccc(O)c1=O           0.12

(I) CCCCNC(=O)Cn1cccc(O)c1=O
(II) CC(C)NC(=O)Cn1cccc(O)c1=O
Of the pair I and II , name the member with the lesser recorded Partition coefficient KOUT, free compound. Identify your pick by its label.
II

---

assay: physchem; conditions: n-octanol/tris buffer, pH 7.4
observation-type: logD at 100 µM

Observe how each entry below is paired with its result.
> print(dat)
                                   compound  observation.type  result.number
1                       CCn1cc(O)c(=O)cc1CO    logD at 100 µM          -1.22
2              CC(=O)OCCCCCn1ccc(=O)c(O)c1C    logD at 100 µM         -0.347
3                  Cc1c(O)c(=O)ccn1CCC(=O)O    logD at 100 µM         -0.347
4                    Cc1c(O)c(=O)ccn1CCCCCO    logD at 100 µM         -0.553
5  CC(=O)n1cccc(O)c1=O [1-acetyl-3-hydroxypyrid-2-one]    logD at 100 µM          -0.26

(A) COC(=O)Cn1cccc(O)c1=O
(B) CCOC(=O)Cn1cccc(O)c1=O
Of the pair A and B , name the member with the lesser recorded logD at 100 µM. Identify your pick by its label.
A
